Consider the following compounds and their measured growth readings.
System: M14 melanoma
Test: NCI-60 one-dose screen, 48 h (100 = growth as untreated, 0 = no growth, -100 = all killed)
Details: 10 µM unless noted
This is part of a sample that, as a whole, favours compounds with a hit. Of some 83,000 tested, about 20% had one in any assay. Calls of active or inactive are those of the source. The calls were made as follows: active = growth percent below 10; inactive = the rest.
QUANTITY: growth

O=C(COCc1c(-c2ccccc2)no[n+]1[O-])Nc1ccc(C(=O)/C=C/c2ccc3c(c2)OCO3)cc1: 109% (inactive)
Cc1cc(OCc2ccc(C(F)(F)F)cc2)c2c(c1)C(=O)C=C(NCCN1CCCC1)C2=O: -84.9% (active)
O=C1c2cc3c(cc2-c2c1c1cc(Cl)c(Cl)cc1c(=O)n2C[C@H](O)CO)OCO3: -16.3% (active)

Reference source: PubChem BioAssay (NCI)
